// merged dataset of IC50 values, system = Methionine aminopeptidase 2 (Homo sapiens), multiple refs

# lookup: Cc1ccn(CCNC(=O)[C@@]2(O)CCN(c3ccccc3)C2=O)n1 on Methionine aminopeptidase 2 (Homo sapiens), IC50 = 1000 to 10000 nM

Given the compound O=C(NCc1cc(F)cc(Cl)c1)[C@@]1(O)CCN(c2ccc(C(F)(F)F)cc2F)C1=O and test system Methionine aminopeptidase 2 (Homo sapiens), the measured IC50 is 10 to 1000 nM

CN(CCO)C(=O)c1cccc(N2CC[C@](O)(C(=O)NCc3cc(F)cc(Cl)c3)C2=O)c1 tested on Methionine aminopeptidase 2 (Homo sapiens) gave IC50: 1000 to 10000 nM

Form field IC50 for item COc1ccc(Cl)cc1N1CCC(O)(C(=O)NCc2cc(F)cc(Cl)c2)C1=O (centres unmarked) on Methionine aminopeptidase 2 (Homo sapiens): 1000 to 10000 nM

The value of IC50 recorded for O=C(O)/C=C/c1ccccc1OC[C@H]1CCCN1c1ncnc2[nH]cnc12 when tested on Methionine aminopeptidase 2 (Homo sapiens) reads > 10000 nM

Param item: CCN[C@H]1CC[C@H](N2CCC(O)(C(=O)NCc3cc(F)cc(Cl)c3)C2=O)CC1 (some centres unmarked) ; param system: Methionine aminopeptidase 2 (Homo sapiens); output IC50: 1000 to 10000 nM

Case O=C(NCc1cccc(Br)c1)[C@@]1(Cl)CCN(c2ccccc2)C1=O , Methionine aminopeptidase 2 (Homo sapiens), IC50 recorded as > 10000 nM

Record for O=C(NCc1cc(F)cc(Cl)c1)C1(O)CCN(c2ccc3c(c2)c(C(F)(F)F)cn3CO)C1=O (centres unmarked) under target or system Methionine aminopeptidase 2 (Homo sapiens): IC50 reported as 10 to 1000 nM

Result for CC1(C)CN(c2ccccc2)C(=O)[C@]1(O)C(=O)NCc1cc(F)cc(Cl)c1 , tested on Methionine aminopeptidase 2 (Homo sapiens), IC50: > 10000 nM

O=C(NCc1cc(F)cc(Cl)c1)C1(O)CCN(CC2CCOCC2)C1=O (centres unmarked) tested on Methionine aminopeptidase 2 (Homo sapiens) gave IC50: 1000 to 10000 nM

Tested on Methionine aminopeptidase 2 (Homo sapiens): O=C(NCc1cc(C(F)(F)F)cc(C(F)(F)F)c1)[C@@]1(O)CCN(c2ccccc2)C1=O . Observed IC50: > 10000 nM

Reported IC50 (Methionine aminopeptidase 2 (Homo sapiens)) for entry NNC(=O)c1cc2cc(N3CC[C@](O)(C(=O)NCc4cc(F)cc(Cl)c4)C3=O)ccc2[nH]1 is 10 to 1000 nM

IC50 of NC(=O)c1cc(N2CCC(O)(C(=O)NCc3cc(F)cc(Cl)c3)C2=O)ccc1F (centres unmarked) , assay on Methionine aminopeptidase 2 (Homo sapiens), is 10 to 1000 nM

Note to self: IC50 of NC(=O)c1cccc(N2CCC(O)(C(=O)NCCc3cc(F)cc(F)c3)C2=O)c1 (centres unmarked) with Methionine aminopeptidase 2 (Homo sapiens) was 10 to 1000 nM

IC50 for Methionine aminopeptidase 2 (Homo sapiens) with input CN(C)c1ccc2cc(S(=O)(=O)O)cc(OC[C@H]3CCCN3c3ncnc4[nH]cnc34)c2c1 equals 1000 to 10000 nM

The value of IC50 recorded for CC(C)(C)c1nc(CCNC(=O)[C@@]2(O)CCN(c3ccccc3)C2=O)no1 when tested on Methionine aminopeptidase 2 (Homo sapiens) reads > 10000 nM

Case O=C1CCc2cc(N3CCC(O)(C(=O)NCc4cc(F)cc(Cl)c4)C3=O)cnc2N1 (centres unmarked) , Methionine aminopeptidase 2 (Homo sapiens), IC50 recorded as 10 to 1000 nM

O=C(NCc1cc(F)cc(Cl)c1)[C@@]1(O)CCN(CCc2c[nH]c3ccccc23)C1=O tested on Methionine aminopeptidase 2 (Homo sapiens) gave IC50: 10 to 1000 nM

Entry O=C(NCc1ccccc1)c1cc(OC[C@H]2CCCN2c2ccnc3ncnn23)c2ccccc2n1 : IC50 on Methionine aminopeptidase 2 (Homo sapiens) = 10 to 1000 nM

Measured on Methionine aminopeptidase 2 (Homo sapiens), CCN1C[C@@H]2[C@H](C1)[C@H]2N1CCC(O)(C(=O)NCc2cc(F)cc(Cl)c2)C1=O (some centres unmarked) has a documented IC50 of > 10000 nM

The recorded IC50 with Methionine aminopeptidase 2 (Homo sapiens) for O=C(NCc1cc(F)cc(Cl)c1)C1(O)CCN(C[C@H]2CC[C@@H](C(=O)O)CC2)C1=O (some centres unmarked) was 1000 to 10000 nM

Record for CC(=O)N(CCN1CCOCC1)Cc1ccc(OC[C@H]2CCCN2c2ncnc3[nH]cnc23)c2ccccc12 under target or system Methionine aminopeptidase 2 (Homo sapiens): IC50 reported as 10 to 1000 nM

Reading of IC50 for c1ccc2c(c1)[nH]c1cccc(OC[C@H]3CCCN3c3ncnc4[nH]cnc34)c12 with Methionine aminopeptidase 2 (Homo sapiens): 10 to 1000 nM

Form field IC50 for item O=C(NCCCN1CCOCC1)[C@@]1(O)CCN(c2ccccc2)C1=O on Methionine aminopeptidase 2 (Homo sapiens): > 10000 nM

Field IC50 (Methionine aminopeptidase 2 (Homo sapiens)), entry O=C1CCc2cc(N3CC[C@](O)(C(=O)NCc4cccc(F)c4Cl)C3=O)ccc2N1 : 10 to 1000 nM

Entry O=C(CN1CCC(O)(C(=O)NCc2cc(F)cc(Cl)c2)C1=O)NCCO (centres unmarked) , Methionine aminopeptidase 2 (Homo sapiens) data, IC50 value: 1000 to 10000 nM

Per the reported Methionine aminopeptidase 2 (Homo sapiens) data, O=C(OC[C@H]1CCCN1c1ccnc2ncnn12)c1ccc(Cl)nc1 has IC50 of 10 to 1000 nM

The compound NS(=O)(=O)c1cccc(N2CCC(O)(C(=O)NCc3cc(F)cc(Cl)c3)C2=O)c1 (centres unmarked) on Methionine aminopeptidase 2 (Homo sapiens): IC50 was 10 to 1000 nM

The compound O=C(NCc1cc(F)cc(Cl)c1)[C@]1(O)CCN(c2ccc(C(F)(F)F)nc2)C1=O , tested on Methionine aminopeptidase 2 (Homo sapiens), showed IC50 of > 10000 nM

I looked up CC(C)(C)c1noc(CCNC(=O)[C@@]2(O)CCN(c3ccccc3)C2=O)n1 and its IC50 for Methionine aminopeptidase 2 (Homo sapiens) was > 10000 nM

Form field, IC50 with Methionine aminopeptidase 2 (Homo sapiens), item CC(=O)Nc1ccc(N2CC[C@@](O)(C(=O)NCCc3cc(F)cc(Cl)c3)C2=O)cn1 : > 10000 nM

Entry O=C(NCc1cccc(-c2nccs2)c1)[C@@]1(O)CCN(c2ccccc2)C1=O ; assay system Methionine aminopeptidase 2 (Homo sapiens); IC50 recorded at 1000 to 10000 nM

I looked up O=C1CCc2cc(N3CC[C@](O)(C(=O)NCc4c(F)cc(F)cc4F)C3=O)ccc2N1 and its IC50 for Methionine aminopeptidase 2 (Homo sapiens) was 10 to 1000 nM

Note to self: IC50 of O=C(NCc1ccccn1)[C@@]1(O)CCCN(Cc2cccc(F)c2F)C1=O with Methionine aminopeptidase 2 (Homo sapiens) was > 10000 nM

Tested on Methionine aminopeptidase 2 (Homo sapiens), the item COc1ccc(CN2CC[C@](O)(C(=O)NCc3cc(F)cc(Cl)c3)C2=O)cc1 showed IC50 equal to 10 to 1000 nM
